- Method summary: recombinant UMI read abundance after kanamycin selection (control-corrected) (log10(CPM+1)); higher = more efficient recombination; extreme values may be limits of the assay; sequences stand for … in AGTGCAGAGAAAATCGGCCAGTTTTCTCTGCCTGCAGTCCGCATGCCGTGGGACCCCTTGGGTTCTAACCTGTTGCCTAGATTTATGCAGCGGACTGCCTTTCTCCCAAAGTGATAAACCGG…AGGTTGGTTTCACT; site = the 11-nt donor
Measured recombinant UMI read abundance (log10), listed per entry for reference.
Attribute measured: recombinant UMI read abundance (log10)

INSERT INTO measurements (monomer_sequence, readout_number) VALUES
  ('CCCGGCCCATGGACCGGTTTTCCCGGTAATCCGTATTTGTT (site CACGGCCCTAA)', 0.00644),
  ('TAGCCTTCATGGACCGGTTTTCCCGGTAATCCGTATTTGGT (site TAGCCTTCTCC)', 0.0356),
  ('GATTATACATGGACCGGTTTTCCCGGTAATCCGTATTTGCT (site GATTATTCTAG)', 0);

====

- Method summary: recombinant barcode read abundance after kanamycin selection (control-corrected) (log10(CPM+1)); higher = more efficient recombination; sequences stand for … in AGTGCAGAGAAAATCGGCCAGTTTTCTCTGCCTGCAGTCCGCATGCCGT…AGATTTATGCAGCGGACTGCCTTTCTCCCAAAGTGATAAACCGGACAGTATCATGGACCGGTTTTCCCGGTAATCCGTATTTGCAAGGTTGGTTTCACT; site = the 11-nt target
Class definitions on recombinant barcode read abundance (log10): lower range: < 0.08; middle range: ≥ 0.08 and < 0.5; upper range: ≥ 0.5

INSERT INTO measurements (monomer_sequence, label_class) VALUES
  ('TAGTCATCTTGGGTTCTAACCTGTTGCTC (site TAGGCATCTGA)', 'middle range'),
  ('CTGGACACTTGGGTTCTAACCTGTTGCCT (site CTGGACACTAG)', 'upper range'),
  ('CCTGATTCTTGGGTTCTAACCTGTTGCCT (site CCTGACTCTAG)', 'middle range'),
  ('ACCTTGTCTTGGGTTCTAACCTGTTGCCT (site ACCTTGTCTAG)', 'upper range'),
  ('AATGTATCTTGGGTTCTAACCTGTTGCCT (site AATGAATCTAG)', 'lower range'),
  ('TGGTGTGCTTGGGTTCTAACCTGTTGCCA (site TAGTGTCCTTG)', 'lower range'),
  ('AGCCTTGCTTGGGTTCTAACCTGTTGCCT (site AGCATTGCTAG)', 'lower range'),
  ('CTCCGGCCTTGGGTTCTAACCTGTTGCTT (site CTCCGCCCTAA)', 'middle range'),
  ('CAGTTTGCTTGGGTTCTAACCTGTTGCCT (site CAGTTGGCTAG)', 'lower range'),
  ('GTCCGTCCTTGGGTTCTAACCTGTTGCCT (site GTCCGTCCTAG)', 'upper range'),
  ('CTGGAAACTTGGGTTCTAACCTGTTGCCT (site CTGGAAACTAG)', 'upper range'),
  ('GTCGGGCCTTGGGTTCTAACCTGTTGCCT (site CTCGGGCCTAG)', 'lower range'),
  ('CTCGGAGCTTGGGTTCTAACCTGTTGCCT (site CTCGGACCTAG)', 'middle range'),
  ('GATACGACTTGGGTTCTAACCTGTTGCCT (site GATACGTCTAG)', 'lower range'),
  ('ATAATAGCTTGGGTTCTAACCTGTTGCAT (site GTAATAGCTAT)', 'lower range'),
  ('GACTGTTCTTGGGTTCTAACCTGTTGCCT (site GCCTGTTCTAG)', 'middle range'),
  ('CTGGACACTTGGGTTCTAACCTGTTGCCT (site CTCGACACTAG)', 'lower range'),
  ('CCGACTTCTTGGGTTCTAACCTGTTGCCT (site CAGACTTCTAG)', 'middle range'),
  ('AACTTAACTTGGGTTCTAACCTGTTGCCT (site AACTTAACTAG)', 'upper range'),
  ('AACGCTTCTTGGGTTCTAACCTGTTGCCT (site AACGCTTCTAG)', 'middle range'),
  ('TAGTTCACTTGGGTTCTAACCTGTTGCCA (site TAGTTAACTTG)', 'middle range'),
  ('TAGTACCCTTGGGTTCTAACCTGTTGCAG (site TAGTACCCTTT)', 'lower range'),
  ('GGGACCTCTTGGGTTCTAACCTGTTGCTC (site GGGACCTCTGA)', 'upper range'),
  ('GATTCGACTTGGGTTCTAACCTGTTGCGT (site GATTCGACTAC)', 'upper range'),
  ('CTCCCTACTTGGGTTCTAACCTGTTGCAG (site CTCCCTACTCT)', 'upper range'),
  ('TTACCCACTTGGGTTCTAACCTGTTGCCT (site TTACCTACTAG)', 'middle range'),
  ('AAGAACTCTTGGGTTCTAACCTGTTGCCG (site AAGAACTCTCG)', 'upper range'),
  ('GCAAGGACTTGGGTTCTAACCTGTTGCAG (site GCAGGGACTCT)', 'upper range'),
  ('TAGTCTCCTTGGGTTCTAACCTGTTGCGT (site TAGTGTCCTAC)', 'middle range'),
  ('TTACGAGCTTGGGTTCTAACCTGTTGCGG (site TTACGTGCTCC)', 'middle range'),
  ('CTAACCTCTTGGGTTCTAACCTGTTGCAT (site CTAGCCTCTAT)', 'middle range'),
  ('CTACGGCCTTGGGTTCTAACCTGTTGCGT (site GGACGGCCTAC)', 'middle range'),
  ('CAGTTCGCTTGGGTTCTAACCTGTTGCCT (site CAGTTAGCTAG)', 'middle range'),
  ('ATGATTCCTTGGGTTCTAACCTGTTGCCT (site AAGATTCCTAG)', 'lower range'),
  ('CAAACAGCTTGGGTTCTAACCTGTTGCCT (site CAAACAGCTAG)', 'upper range'),
  ('CTGGGTCCTTGGGTTCTAACCTGTTGCTT (site CTGGGTCCTAA)', 'upper range');

====

- Method summary: recombinant barcode read abundance after kanamycin selection (control-corrected) (log10(CPM+1)); higher = more efficient recombination; sequences stand for … in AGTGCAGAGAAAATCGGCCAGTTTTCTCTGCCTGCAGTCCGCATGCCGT…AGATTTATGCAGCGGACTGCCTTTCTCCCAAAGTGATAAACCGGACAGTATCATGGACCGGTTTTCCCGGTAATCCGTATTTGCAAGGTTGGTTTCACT; site = the 11-nt target
Attribute measured: recombinant barcode read abundance (log10)

INSERT INTO assay_data (monomer_sequence, readout_number) VALUES
  ('GAGACTGCTTGGGTTCTAACCTGTTGCCT (site GAAACTGCTAG)', 0.291),
  ('CGTGCGTCTTGGGTTCTAACCTGTTGCCT (site TGTGCGTCTAG)', 0.0337),
  ('GGGGTTCCTTGGGTTCTAACCTGTTGCCT (site GGGGTTCCTAA)', 0.223);

====

- Method summary: recombinant UMI read abundance after kanamycin selection (control-corrected) (log10(CPM+1)); higher = more efficient recombination; extreme values may be limits of the assay; sequences stand for … in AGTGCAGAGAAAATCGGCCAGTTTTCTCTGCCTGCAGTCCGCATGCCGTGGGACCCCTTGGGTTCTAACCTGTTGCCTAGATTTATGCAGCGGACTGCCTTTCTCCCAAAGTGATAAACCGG…AGGTTGGTTTCACT; site = the 11-nt donor
Attribute measured: recombinant UMI read abundance (log10)

INSERT INTO assay_data (monomer_sequence, result) VALUES
  ('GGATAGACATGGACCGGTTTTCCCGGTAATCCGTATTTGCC (site CGATAGACTGG)', 0.635),
  ('CGGACATCATGGACCGGTTTTCCCGGTAATCCGTATTTGGT (site CGGACATCTAT)', 1.15),
  ('CAAGTCTCATGGACCGGTTTTCCCGGTAATCCGTATTTGGG (site CAAGTCCCTCC)', 0.019),
  ('TATGTAACATGGACCGGTTTTCCCGGTAATCCGTATTTGAC (site GTACCGTCTAA)', 0.0137),
  ('GACGAACCATGGACCGGTTTTCCCGGTAATCCGTATTTGAG (site GACGAACCTCT)', 0),
  ('GGACTGGCATGGACCGGTTTTCCCGGTAATCCGTATTTGGT (site GGAATGGCTAC)', 0.00409),
  ('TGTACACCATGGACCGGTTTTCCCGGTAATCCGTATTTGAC (site AGTACACCTGT)', 0),
  ('TCATACGCATGGACCGGTTTTCCCGGTAATCCGTATTTGCA (site TCATACACTTG)', 1.03),
  ('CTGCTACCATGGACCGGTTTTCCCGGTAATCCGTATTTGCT (site CCGCTACCTAG)', 0),
  ('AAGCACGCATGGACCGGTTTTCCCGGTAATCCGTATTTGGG (site TAGCACGCTCC)', 0.0044),
  ('CACTCCTCATGGACCGGTTTTCCCGGTAATCCGTATTTGTC (site CACTCCTCTGA)', 3.16),
  ('AGGACTACATGGACCGGTTTTCCCGGTAATCCGTATTTGCC (site AGGACTACTGG)', 2.23);
